- Test system: SK-OV-3
- assayDetails: NCI tumour cell line growth inhibition, 48 h
Activity calls are given as the source filed them. Cut-off read from the data, not from the text of the source: active = GI50 up to about 1.1 µM and inactive = higher.
Respond with a class label; see active, inactive

Study these solved cases before continuing.
COc1ccc2c(=O)c3ccoc3n(CC=C(C)C)c2c1    inactive
O=C(O)CC(Cc1ccccc1)C(=O)O (configuration not stated)    inactive

Alright, here's another molecule for you.
Exercise: Please share the test call associated with [N-]=[N+]=NC1=C(N=[N+]=[N-])c2cccc3cccc(c23)C1=O .
Solution: inactive

###

- System: HCC 2998
- assayDetails: NCI tumour cell line growth inhibition, 48 h
Calls of active or inactive are those of the source. Cut-off read from the data, not from the text of the source: active = GI50 up to about 1.1 µM and inactive = higher.
Please answer using one outcome listed in y = active, n = inactive

C[C@]12CC/C(=N\OC(=O)Nc3ccccc3)C=C1CC[C@@H]1C2CC[C@@]2(C)C1CC[C@@H]2OC(=O)Nc1ccccc1 (stereo partly drawn)    n
COc1c(I)c(OC)c2c(c1I)O[C@@H]1OCC[C@H]21    n
O=C(O)CSCc1cc2c(O)c(c1)Cc1cc(CSCC(=O)O)cc(c1O)Cc1cc(CSCC(=O)O)cc(c1O)Cc1cc(CSCC(=O)O)cc(c1O)C2    n
O=C(Cc1ccccc1)NN1C(=O)C(Cl)C1c1ccc(O)cc1 (stereo not drawn)    n
COC(=O)C1=C(O)c2cc(OC)c(OC)cc2C(c2ccc(OC)c(OC)c2)C1 (stereo not drawn)    n

Exercise: Please let me know the test result on file for c1ccc(/N=c2/sc3ccccc3s/c2=N/c2ccccc2)cc1 .
Solution: n

Exercise: Then this molecule: O=C(NC(Cc1c[nH]c2ccccc12)C(=O)O)/C(=C/c1ccccc1)NC(=O)c1ccccc1 (stereo not drawn)
Solution: n

Exercise: Then this molecule: CCOC(=O)N/N=C(\Cc1ccc([N+](=O)[O-])cc1)OCC
Solution: n

Exercise: Also check COc1cc(/C=C/C2=C(C#N)C(=O)OC2(C)C)ccc1O
Solution: n

###

- Test system: CAKI-1
- assayDetails: NCI tumour cell line growth inhibition, 48 h
Calls of active or inactive are those of the source. Cut-off read from the data, not from the text of the source: active = GI50 up to about 1.1 µM and inactive = higher.
readoutLabel: GI50

Answered cases to consult:
CC1=C(C#N)C(N)=C2C(C)=C(C#N)C(N)=C12    > 100 µM (inactive)
CCOC(=O)c1nc2ccc(C(F)(F)F)cc2nc1NCc1ccc(OC)cc1    > 100 µM (inactive)
O=S(=O)(O)c1ccc(-c2nnc(-c3ccccn3)nc2-c2ccc(S(=O)(=O)O)o2)o1    > 100 µM (inactive)
COc1ccc(CNC(=O)[C@H](Cc2ccc(O)cn2)NC(C)=O)cc1OC    > 100 µM (inactive)
CC(=O)[C@H]1[C@H](O)C[C@@]2(C)[C@@H]3CCc4cc(O)c(OC5OC(CO)C(O)C(O)C5O)cc4C3(C)C(=O)C[C@]12C (stereo partly specified)    > 100 µM (inactive)

Next:
Exercise: Reported GI50 for CC(=O)N1N=C(c2c(O)ccc3ccccc23)CC1C(=O)c1ccco1 (stereo unspecified) : what is it?
Solution: 42.6 µM (inactive)

###

- Test system: BT-549
- assayDetails: NCI tumour cell line growth inhibition, 48 h
The source made the active and inactive calls. Cut-off read from the data, not from the text of the source: active = GI50 up to about 1.1 µM and inactive = higher.
Entries and their measured GI50 follow.

COC(=O)c1c(C#N)[nH]c(-c2ccsc2)c1C(=O)OC    > 100 µM (inactive)
CC(=O)OC(C(=O)O)C(OC(C)=O)C(OC(C)=O)C(OC(C)=O)C(=O)O (stereo not given)    > 100 µM (inactive)
Cc1cc(S(=O)(=O)Nc2nnc3c4ccccc4cnn23)c(S)cc1Cl    > 54.5 µM (inactive)
Cc1ccc2oc(=O)c(C(=O)Nc3nc(C45CC6CC(CC(C6)C4)C5)cs3)cc2c1    > 100 µM (inactive)
Nc1ccc(-c2nc3ccccc3s2)cc1F    68.4 µM (inactive)
N=C(N)N/N=C/c1c(-c2ccc([N+](=O)[O-])cc2)nc2sc(Cl)cn12    1.8 µM (inactive)

Exercise: Using the record for O=C1N[C@H]2C(=O)c3c(Cl)sc(Cl)c3[C@H]2O1 , report its GI50.
Solution: 23.3 µM (inactive)

Exercise: Thanks! And Cc1ccc2c(c1)-c1c(C#N)c(N)nc(-c3ccc(Cl)cc3)c1CCS2(=O)=O ?
Solution: 13.6 µM (inactive)

Exercise: Would you kindly repeat that for O=C1c2cccc([N+](=O)[O-])c2C(=O)N1c1ncn[nH]1 ?
Solution: 28.2 µM (inactive)

Exercise: Please give the result for COc1ccc(-c2nnc3n(Cc4ccccc4)c4ccccc4n3c2=O)cc1 too.
Solution: > 100 µM (inactive)
